System: TK6 human lymphoblastoid cell line
assay_comment: GreenScreen HC cytotoxicity (propidium iodide uptake)
Assay type: cell-based
experimental_setup: lowest effective concentration for loss of cell viability, 24 h
# label = condition met if Cytotoxicity, LEC, 24 h < 0.9 µM else condition not met

compound: Cc1cc(S(=O)(=O)NC2CCC(C)(O)CC2)ccc1-c1ccc(F)cc1F (single isomer, unassigned) [REF001, reference compound]
class_name: condition met

compound: C[C@]1(O)CC[C@H](NS(=O)(=O)c2ccc(-c3ncc(F)cc3F)c(F)c2)CC1
class_name: condition not met

compound: C[C@]1(O)CC[C@@H](NS(=O)(=O)c2ccc(-c3ncc(F)cc3F)cc2)CC1
class_name: condition met

compound: C[C@]1(O)CC[C@H](NS(=O)(=O)c2ccc(-c3ccc(F)cc3F)cc2)CC1 [ABD900, reference compound]
class_name: condition met

compound: C[C@]1(O)CC[C@H](NS(=O)(=O)c2ccc(-c3ncc(F)cc3F)cc2)CC1
class_name: condition not met

compound: C[C@]1(O)CC[C@H](NS(=O)(=O)c2ccc(-c3c(F)cc(F)cc3F)cc2)CC1
class_name: condition met

compound: C[C@]1(O)CC[C@H](NS(=O)(=O)c2ccc(-c3ccc(F)cc3C(F)(F)F)cc2)CC1
class_name: condition not met

###

assay_comment: Maximum Tolerated Dose, Han Wistar rats
experimental_setup: rat, in vivo, oral; female Han Wistar rats; read-out: Maximum tolerated dose, Females
observable: MTD

record_smiles: C[C@]1(O)CC[C@H](NS(=O)(=O)c2ccc(-c3ccc(Cl)cc3C#N)cc2)CC1
result: > 500 mg/kg

###

measured_target: UniProt:Q12809
Sequence (Q12809 whole entry): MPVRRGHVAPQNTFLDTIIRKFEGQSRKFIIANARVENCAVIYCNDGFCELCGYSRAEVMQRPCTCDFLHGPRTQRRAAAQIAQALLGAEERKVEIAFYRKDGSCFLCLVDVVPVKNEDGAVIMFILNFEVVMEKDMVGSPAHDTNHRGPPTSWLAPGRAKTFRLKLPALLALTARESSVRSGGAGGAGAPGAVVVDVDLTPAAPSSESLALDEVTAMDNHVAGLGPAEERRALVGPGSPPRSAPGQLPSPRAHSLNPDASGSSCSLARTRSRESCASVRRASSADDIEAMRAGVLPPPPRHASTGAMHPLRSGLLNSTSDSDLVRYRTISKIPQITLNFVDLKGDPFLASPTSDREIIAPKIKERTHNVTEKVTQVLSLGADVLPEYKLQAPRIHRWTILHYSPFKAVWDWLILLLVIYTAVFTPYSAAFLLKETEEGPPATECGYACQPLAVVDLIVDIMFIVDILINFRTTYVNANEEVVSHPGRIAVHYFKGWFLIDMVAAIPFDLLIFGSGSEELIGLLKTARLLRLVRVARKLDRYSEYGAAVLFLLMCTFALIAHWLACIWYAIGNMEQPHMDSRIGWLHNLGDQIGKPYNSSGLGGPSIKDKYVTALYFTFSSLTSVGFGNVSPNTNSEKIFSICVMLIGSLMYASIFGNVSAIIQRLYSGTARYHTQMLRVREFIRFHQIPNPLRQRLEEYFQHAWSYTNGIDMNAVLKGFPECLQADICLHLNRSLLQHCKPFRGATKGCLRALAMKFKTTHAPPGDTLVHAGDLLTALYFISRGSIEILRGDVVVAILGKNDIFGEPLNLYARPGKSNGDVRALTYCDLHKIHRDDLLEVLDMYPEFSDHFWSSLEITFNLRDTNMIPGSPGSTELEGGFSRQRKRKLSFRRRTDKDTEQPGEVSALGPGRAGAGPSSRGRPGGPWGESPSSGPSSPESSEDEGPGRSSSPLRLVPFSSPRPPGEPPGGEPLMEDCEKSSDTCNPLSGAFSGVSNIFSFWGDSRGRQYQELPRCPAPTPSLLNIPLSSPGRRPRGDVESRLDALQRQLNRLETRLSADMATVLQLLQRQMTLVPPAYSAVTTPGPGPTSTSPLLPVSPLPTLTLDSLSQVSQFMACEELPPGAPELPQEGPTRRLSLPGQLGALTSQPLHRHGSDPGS
assay_comment: hERG Ion Channel Assay (Q-patch, hERG-CHO cells)
experimental_setup: hERG tail current, hERG-CHO cells, Q-patch; read-out: IC50 (1)
# label = 1.0 if IC50 < 20 µM else 0.0

compound: C[C@]1(O)CC[C@H](NS(=O)(=O)c2ccc(-c3ncc(F)cc3F)cc2)CC1 [HMC-N-02-A]
class_name: 0.0
--
compound: C[C@]1(O)CC[C@H](NS(=O)(=O)c2ccc(-c3c(F)cc(F)cc3F)cc2)CC1 [HMC-C-03-A]
class_name: 0.0
--
compound: C[C@]1(O)CC[C@H](NS(=O)(=O)c2ccc(-c3ccc(F)cc3C(F)(F)F)cc2)CC1 [HMC-C-02-A]
class_name: 0.0
--
compound: O=S(=O)(N[C@H]1CC[C@H](O)CC1)c1ccc(-c2ccc(F)cc2F)cc1 [ABD599, reference compound]
class_name: 1.0
--
compound: C[C@]1(O)CC[C@@H](NS(=O)(=O)c2ccc(-c3ccc(F)cc3F)cc2)CC1 [ABD899, reference compound]
class_name: 1.0
--
compound: C[C@]1(O)CC[C@H](NS(=O)(=O)c2ccc(-c3ncc(Cl)cc3Cl)c(F)c2)CC1 [HMC-N-04-A]
class_name: 0.0
--
compound: C[C@]1(O)CC[C@H](NS(=O)(=O)c2ccc(-c3ccc(Cl)cc3C#N)cc2)CC1 [HMC-C-01-A]
class_name: 1.0
--
compound: C[C@]1(O)CC[C@H](NS(=O)(=O)c2ccc(-c3ncc(Cl)cc3Cl)cc2)CC1 [HMC-N-03-A]
class_name: 0.0
--
compound: C[C@]1(O)CC[C@H](NS(=O)(=O)c2ccc(-c3ncc(F)cc3F)c(F)c2)CC1 [HMC-N-01-A]
class_name: 0.0

###

System: TK6 human lymphoblastoid cell line
assay_comment: GreenScreen HC cytotoxicity (propidium iodide uptake)
Format: cell-based
experimental_setup: lowest effective concentration for loss of cell viability, 24 h

compound: O=S(=O)(N[C@H]1CC[C@H](O)CC1)c1ccc(-c2ncc(Cl)cc2Cl)cc1 [ABD836, reference compound]
unit_spec: µM
Cytotoxicity, LEC, 24 h: 0.04
--
compound: C[C@]1(O)CC[C@H](NS(=O)(=O)c2ccc(-c3ccc(Cl)cc3C#N)cc2)CC1
unit_spec: µM
Cytotoxicity, LEC, 24 h: 0.47
--
compound: C[C@]1(O)CC[C@H](NS(=O)(=O)c2ccc(-c3ncc(Cl)cc3Cl)cc2)CC1
unit_spec: µM
Cytotoxicity, LEC, 24 h: 0.94
--
compound: C[C@]1(O)CC[C@H](NS(=O)(=O)c2ccc(-c3ncc(Cl)cc3Cl)c(F)c2)CC1
unit_spec: µM
Cytotoxicity, LEC, 24 h: 0.47

###

assay_comment: Rodent pharmacokinetics study
Format: in vivo, Sprague-Dawley rats
experimental_setup: male, Sprague-Dawley, plasma; rat, elimination phase half-life
Form field: half-life (one value per entry).
observable: half-life

compound: C[C@]1(O)CC[C@H](NS(=O)(=O)c2ccc(-c3ncc(F)cc3F)c(F)c2)CC1 [HMC-N-01-A]
observable: half-life
result: 13.4 h
--
compound: C[C@]1(O)CC[C@@H](NS(=O)(=O)c2ccc(-c3c(F)cc(F)cc3F)cc2)CC1 [HMC-C-03-B]
observable: half-life
result: 8.3 h
--
compound: C[C@]1(O)CC[C@@H](NS(=O)(=O)c2ccc(-c3ncc(F)cc3F)c(F)c2)CC1 [HMC-N-01-B]
observable: half-life
result: 9.1 h
--
compound: Cc1cc(S(=O)(=O)N[C@H]2CC[C@H](O)CC2)ccc1-c1ccc(F)cc1F [ABD735]
observable: half-life
result: 3.8 h

###

assay_comment: Aqueous (FaSSIF) solubility
Type: physicochemical
experimental_setup: fasted state simulated intestinal fluid (FaSSIF), kinetic from dmso stock, pH 6.5, three replicates, 16 hours, read-out: Solubility (1)
Form field: solubility at 16 h (one value per entry).

compound: C[C@]1(O)CC[C@H](NS(=O)(=O)c2ccc(-c3ccc(F)cc3C(F)(F)F)cc2)CC1
solubility at 16 h: 40 µg/mL
--
compound: C[C@]1(O)CC[C@H](NS(=O)(=O)c2ccc(-c3ccc(Cl)cc3C#N)cc2)CC1
solubility at 16 h: 60 µg/mL
--
compound: C[C@]1(O)CC[C@H](NS(=O)(=O)c2ccc(-c3ncc(Cl)cc3Cl)cc2)CC1
solubility at 16 h: > 80 µg/mL
--
compound: C[C@]1(O)CC[C@H](NS(=O)(=O)c2ccc(-c3ncc(Cl)cc3Cl)c(F)c2)CC1
solubility at 16 h: 60 µg/mL
--
compound: O=S(=O)(N[C@H]1CC[C@H](O)CC1)c1ccc(-c2ncc(Cl)cc2Cl)cc1 [ABD836, reference compound]
solubility at 16 h: 30 µg/mL
--
compound: C[C@]1(O)CC[C@H](NS(=O)(=O)c2ccc(-c3c(F)cc(F)cc3F)cc2)CC1
solubility at 16 h: 30 µg/mL
--
compound: Cc1cc(S(=O)(=O)NC2CCC(C)(O)CC2)ccc1-c1ccc(F)cc1F (single isomer, unassigned) [REF001, reference compound]
solubility at 16 h: 50 µg/mL

###

Form field: half-life at 1 μM (one value per entry).
assay_comment: Human Liver Microsomal Stability
Type: in vitro ADME
experimental_setup: both sexes, pooled liver microsomes, pH 7.4, human liver microsomes 0.25 mg/mL protein, 1 μM compound, 5 time points 0-60 min, one replicate, read-out: T1/2 (1)
observable: half-life at 1 μM

molecule: C[C@]1(O)CC[C@H](NS(=O)(=O)c2ccc(-c3ccc(F)cc3C(F)(F)F)cc2)CC1
result: 0.917 h
--
molecule: C[C@]1(O)CC[C@@H](NS(=O)(=O)c2ccc(-c3ccc(F)cc3F)cc2)CC1 [ABD899, reference compound]
result: 1.2 h
--
molecule: C[C@]1(O)CC[C@H](NS(=O)(=O)c2ccc(-c3c(F)cc(F)cc3F)cc2)CC1
result: 1.4 h
--
molecule: C[C@]1(O)CC[C@H](NS(=O)(=O)c2ccc(-c3ncc(F)cc3F)cc2)CC1
result: 6.12 h

###

assay_comment: Rodent pharmacokinetics study
Format: in vivo, Sprague-Dawley rats
experimental_setup: male, Sprague-Dawley, plasma; rat, elimination phase half-life

compound: C[C@]1(O)CC[C@@H](NS(=O)(=O)c2ccc(-c3ccc(Cl)cc3C#N)cc2)CC1 [HMC-C-01-B]
unit_spec: h
half-life: 5.7

compound: C[C@]1(O)CC[C@@H](NS(=O)(=O)c2ccc(-c3ccc(F)cc3F)c(F)c2)CC1 [HMC-C-04-B]
unit_spec: h
half-life: 5.5

compound: C[C@]1(O)CC[C@H](NS(=O)(=O)c2ccc(-c3ccc(F)cc3C(F)(F)F)cc2)CC1 [HMC-C-02-A]
unit_spec: h
half-life: 3.2

compound: Cc1cc(S(=O)(=O)NC2CCC(C)(O)CC2)ccc1-c1ccc(F)cc1F (single isomer, unassigned) [REF001, reference compound]
unit_spec: h
half-life: 7.2

compound: C[C@]1(O)CC[C@H](NS(=O)(=O)c2ccc(-c3ncc(Cl)cc3Cl)c(F)c2)CC1 [HMC-N-04-A]
unit_spec: h
half-life: 2.9

###

assay_comment: Human Liver Microsomal Stability
Assay type: in vitro ADME
experimental_setup: both sexes, pooled liver microsomes, pH 7.4, human liver microsomes 0.5 mg/mL protein, 1 μM compound, 6 time points 0-60 min, two replicates, read-out: T1/2 (2)
Form field: half-life at 1 μM (one value per entry).
observable: half-life at 1 μM (h)

compound: C[C@]1(O)CC[C@@H](NS(=O)(=O)c2ccc(-c3c(F)cc(F)cc3F)cc2)CC1 [HMC-C-03-B]
measured_number: 0.8

compound: C[C@]1(O)CC[C@H](NS(=O)(=O)c2ccc(-c3ccc(F)cc3F)c(F)c2)CC1 [HMC-C-04-A]
measured_number: 1.67

compound: C[C@]1(O)CC[C@@H](NS(=O)(=O)c2ccc(-c3ncc(Cl)cc3Cl)cc2)CC1 [HMC-N-03-B]
measured_number: 1.17

compound: C[C@]1(O)CC[C@@H](NS(=O)(=O)c2ccc(-c3ccc(F)cc3F)cc2)CC1 [ABD899, reference compound]
measured_number: 1.75

compound: C[C@]1(O)CC[C@@H](NS(=O)(=O)c2ccc(-c3ccc(Cl)cc3C#N)cc2)CC1 [HMC-C-01-B]
measured_number: 1.17

compound: C[C@]1(O)CC[C@H](NS(=O)(=O)c2ccc(-c3ccc(F)cc3F)cc2)CC1 [ABD900, reference compound]
measured_number: 1.45

compound: C[C@]1(O)CC[C@@H](NS(=O)(=O)c2ccc(-c3ncc(F)cc3F)c(F)c2)CC1 [HMC-N-01-B]
measured_number: 2.12

compound: C[C@]1(O)CC[C@@H](NS(=O)(=O)c2ccc(-c3ccc(F)cc3F)c(F)c2)CC1 [HMC-C-04-B]
measured_number: 1.78
